src = PubChem BioAssay (NCI)

test system: MOLT-4 leukemia; experiment: NCI-60 one-dose screen, 48 h (100 = growth as untreated, 0 = no growth, -100 = all killed); conditions: 10 µM unless noted
About 83,000 compounds went through this panel and 20% of them were active in at least one assay; those are over-represented in the sample as a whole.
So basically: growth at 30% or higher? That is Satisfied. Lower than 30%? That is Not satisfied.

Worked set:
* C#Cc1nc(C(=O)NCCCCCCC(=O)NO)cs1 | Not satisfied
* O=S(=O)(NCCCNc1nccc(-c2[nH]c(-c3ccccc3)nc2-c2ccc(F)c(O)c2)n1)c1cccc2ccccc12 | Satisfied
* CCc1cc(OC(=O)N2CCC(N3CCCCC3)CC2)ccc1Nc1cc(-c2ccc(-n3cccn3)cc2)[nH]n1 | Not satisfied

Test whether the compound CC(=O)C1=C(C)NC(NNc2ccccc2)=NC1c1ccc([N+](=O)[O-])cc1 (stereo not drawn) records growth of 30% or higher. Satisfied

Test whether the compound CC(=O)/C(N=Nc1ccc2oc(=O)ccc2c1)=C(\C)O records growth of 30% or higher. Not satisfied

Test whether the compound CC(O)c1cccc(/C(N)=N/C(N)=N/c2nc3ccccc3s2)c1 (stereo not drawn) records growth of 30% or higher. Satisfied

Test whether the compound Cc1cccc(N2CCN(C3=C(Cl)C(=O)c4ncccc4C3=O)CC2)c1 records growth of 30% or higher. Not satisfied

Test whether the compound CN1CCN(Cc2ccc(NC(=O)c3cncc(C#Cc4cnc5ccc(OCC6COC6)nn45)c3)cc2C(F)(F)F)CC1 records growth of 30% or higher. Not satisfied

Test whether the compound CS(=O)(=O)c1ccc(/C(=N/N=C(N)N)c2ccc(Cl)cc2)cc1 records growth of 30% or higher. Satisfied

Test whether the compound C=C(C)[C@@H]1CC[C@]2(COP(=O)(OCC)OCC)CC[C@]3(C)[C@H](CC[C@@H]4[C@@]5(C)CC[C@H](OP(=O)(OCC)OCC)C(C)(C)[C@@H]5CC[C@]43C)[C@@H]12 records growth of 30% or higher. Not satisfied

Test whether the compound C[C@H](Nc1ncnc2ccc(-c3cnc(Cl)c(NS(C)(=O)=O)c3)cc12)c1ccccc1 records growth of 30% or higher. Not satisfied

Test whether the compound O=C(CSc1cc[n+](CCCCO)c2ccccc12)n1ccc2ccccc21 records growth of 30% or higher. Satisfied

Test whether the compound O=C1[C@@H]2Cc3c([nH]c4ccccc34)[C@H](c3ccc(Br)cc3)N2C(=O)CN1C1CCN(Cc2c(Cl)cccc2Cl)CC1 records growth of 30% or higher. Satisfied

Test whether the compound CCCCN1C(=O)/C(=c2\sc3n(c2=O)C2C(NN=3)N(CC)C(=O)N2CC)c2cccc(C)c21 (stereo not drawn) records growth of 30% or higher. Satisfied

Test whether the compound CCOP(=O)(OCC)OC[C@]12CC[C@@H](C)[C@H](C)C1C1=CC[C@@H]3[C@@]4(C)CCCNC(C)(C)[C@@H]4CC[C@@]3(C)[C@]1(C)CC2 (stereo partly drawn) records growth of 30% or higher. Not satisfied

---

tested on: CAKI-1 renal; assay: NCI-60 one-dose screen, 48 h; settings: 10 µM unless noted
The panel holds about 83,000 compounds, 20% with a hit somewhere; the sample as a whole holds those more often. Active and inactive are the calls of the source. How the source made its calls: active means growth percent below 10; inactive means the rest.
In this exercise, the only acceptable responses are active, inactive

Worked set:
• CCOP(=O)(OCC)OC[C@]12CCC(C)(C)CC1C1=CC[C@@H]3[C@@]4(C)CCCNC(C)(C)[C@@H]4CC[C@@]3(C)[C@]1(C)CC2 (stereo partly specified) = inactive
• COc1ccc(NC(=O)CCCCCCNC(=O)C(O)(O)C(F)(F)F)cc1 = inactive
• Cc1ccc2c(n1)C(=O)C(Cl)=C(Nc1ccccc1C(=O)OC(C)(C)C)C2=O = active
• COc1cccc(N2CCN(C3=C(Cl)C(=O)c4ncccc4C3=O)CC2)c1 = inactive
• O=C1Nc2ccccc2/C1=C/c1ccc(OCC(=O)c2ccccc2)cc1 = inactive

Okay, now this compound:
GET /call?item= Cc1csc(/N=C(N)/N=C(\N)c2cccs2)n1 returns the recorded outcome of this test. inactive
